- target.entity: S. aureus SPase (Staphylococcus aureus, UniProt P0A070)
- Sequence (P0A070 whole entry): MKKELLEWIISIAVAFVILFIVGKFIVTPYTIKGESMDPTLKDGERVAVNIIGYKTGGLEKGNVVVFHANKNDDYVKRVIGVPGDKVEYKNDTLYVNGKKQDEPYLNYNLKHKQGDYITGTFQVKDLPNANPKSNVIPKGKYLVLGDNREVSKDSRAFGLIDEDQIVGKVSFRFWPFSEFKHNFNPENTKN
- test.protocol: biochemical
Numbered stars: 1 amine (or outer) side, 2 acyl side, 3 side chain; on linkers, the order of the positions; unused ones are H or OH. Square brackets hold non-standard residues; d marks the D form. Peptide text beside a SMILES is read from it. * marks the point of attachment. boroAla((+)-pinanediol) = C[C@H](N*)B1O[C@@H]2C[C@@H]3C[C@@H](C3(C)C)[C@]2(C)O1; Biphenylcarbonyl(4'-Bu) = CCCCc1ccc(-c2ccc(C(=O)*)cc2)cc1; X1 = C[C@H](N*)B1OC2C[C@@H]3C[C@@H](C3(C)C)[C@]2(C)O1; Benzoyl(2,3-diOH) = O=C(c1cccc(O)c1O)*; NMeY = CN[C@@H](Cc1ccc(O)cc1)C(=O)O; X10 = CCCCc1ccc(-c2ccc(N*)cc2)cc1; Decanoyl = CCCCCCCCCC(=O)*; boroAla = C[C@H](N*)B(O)O; Dab = NCC[C@H](N)C(=O)O; Abu = CC[C@H](N)C(=O)O; Dap = NC[C@H](N)C(=O)O; CO = O=C([*:1])[*:2]; βAla = NCCC(=O)O
observable: log10 of IC50 (log10 of the value in nM)

| compound | log10 of IC50 |
| --- | --- |
| CCCCc1ccc(-c2ccc(C(=O)N[C@H](CO)C(=O)N[C@H](C)C(=O)NCC(=O)N(C)[C@@H](Cc3ccc(O)cc3)C(=O)N[C@@H](C)C(=O)N[C@@H](CC(N)=O)C(=O)N[C@@H](C)B3OC4C[C@@H]5C[C@@H](C5(C)C)[C@]4(C)O3)cc2)cc1 (stereo partly shown) [Compound 227] ({Biphenylcarbonyl(4'-Bu)}-[dS][dA]G[NMeY]AN-X1) | 2.93 |
| CCCCc1ccc(-c2ccc(C(=O)NCCC(=O)N[C@@H](CCCCN)C(=O)N[C@@H](CCCCN)C(=O)N[C@@H](C)C(=O)N[C@@H](CCCCN)C(=O)N[C@@H](C)B(O)O)cc2)cc1 [Compound 224] ({Biphenylcarbonyl(4'-Bu)-βAla}-KKAK-boroAla) | 1.08 |
| CCCCc1ccc(-c2ccc(C(=O)N[C@@H](CCCCN)C(=O)N[C@@H](CCCCN)C(=O)N[C@@H](C)C(=O)N[C@@H](CC(N)=O)C(=O)N[C@@H](C)B3O[C@@H]4C[C@@H]5C[C@@H](C5(C)C)[C@]4(C)O3)cc2)cc1 [Compound 134] ({Biphenylcarbonyl(4'-Bu)}-KKAN-{boroAla((+)-pinanediol)}) | 2.08 |
| CCCCc1ccc(-c2ccc(C(=O)NCCC(=O)N[C@@H](CCCCN)C(=O)N[C@H](C(=O)N[C@@H](C)C(=O)N[C@@H](CC(C)C)C(=O)N[C@@H](C)B3OC4C[C@@H]5C[C@@H](C5(C)C)[C@]4(C)O3)[C@@H](C)O)cc2)cc1 (stereo partly shown) [Compound 198] ({Biphenylcarbonyl(4'-Bu)-βAla}-KTAL-X1) | 0.95 |
| CCCCc1ccc(-c2ccc(CNCC[C@H](NC(C)=O)C(=O)N[C@H](C(=O)N[C@@H](C)C(=O)N[C@@H](CCCCN)C(=O)N[C@@H](C)B3OC4C[C@@H]5C[C@@H](C5(C)C)[C@]4(C)O3)[C@@H](C)O)cc2)cc1 (stereo partly shown) [Compound 277] | 2.04 |
| CCCCc1ccc(-c2ccc(C(=O)NCCC(=O)N[C@@H](CCCCN)C(=O)N[C@H](C(=O)N[C@@H](C)C(=O)N[C@@H](Cc3ccc(O)cc3)C(=O)N[C@@H](C)B3OC4C[C@@H]5C[C@@H](C5(C)C)[C@]4(C)O3)[C@@H](C)O)cc2)cc1 (stereo partly shown) [Compound 225] ({Biphenylcarbonyl(4'-Bu)-βAla}-KTAY-X1) | 0.60 |
| CCCCCCCCCC(=O)N[C@@H](CN)C(=O)N[C@H](C(=O)N[C@@H](C)C(=O)N[C@@H](CCCCN)C(=O)N[C@@H](C)B1OC2C[C@@H]3C[C@@H](C3(C)C)[C@]2(C)O1)[C@@H](C)O (stereo partly shown) [Compound 169] (Decanoyl-[Dap]TAK-X1) | 1.94 |
| CCCCc1ccc(-c2ccc(C(=O)NCCC(=O)N[C@@H](CCCCN)C(=O)N[C@H](C(=O)N[C@@H](C)C(=O)N[C@@H](Cc3c[nH]cn3)C(=O)N[C@@H](C)B3OC4C[C@@H]5C[C@@H](C5(C)C)[C@]4(C)O3)[C@@H](C)O)cc2)cc1 (stereo partly shown) [Compound 196] ({Biphenylcarbonyl(4'-Bu)-βAla}-KTAH-X1) | 0.76 |
| CCCCc1ccc(-c2ccc(C(=O)N[C@@H](CCN)C(=O)N[C@@H](CCN)C(=O)N[C@@H](C)C(=O)N[C@@H](CCCCNC(=O)c3cccc(O)c3O)C(=O)N[C@@H](C)B3OC4C[C@@H]5C[C@@H](C5(C)C)[C@]4(C)O3)cc2)cc1 (stereo partly shown) [Compound 190] ({Biphenylcarbonyl(4'-Bu)}-[Dab][Dab]AK(Benzoyl(2,3-diOH))-X1) | 4.81 |
| CCCCc1ccc(-c2ccc(C(=O)N[C@@H](CCCCN)C(=O)N[C@@H](CN)C(=O)N[C@@H](C)C(=O)N[C@@H](CC(C)C)C(=O)N[C@@H](C)B(O)O)cc2)cc1 [Compound 165] ({Biphenylcarbonyl(4'-Bu)}-K[Dap]AL-boroAla) | 2.61 |
| CCCCc1ccc(-c2ccc(C(=O)N[C@@H](CCCCN)C(=O)N[C@H](C(=O)N[C@@H](CC)C(=O)N[C@@H](CC(N)=O)C(=O)N[C@@H](C)B3O[C@@H]4C[C@@H]5C[C@@H](C5(C)C)[C@]4(C)O3)[C@@H](C)O)cc2)cc1 [Compound 144] ({Biphenylcarbonyl(4'-Bu)}-KT[Abu]N-{boroAla((+)-pinanediol)}) | 1.56 |
| CCCCc1ccc(-c2ccc(NC(=O)N[C@@H](CCCCN)C(=O)N[C@H](C(=O)N[C@@H](C)C(=O)N[C@@H](CC(N)=O)C(=O)N[C@@H](C)B3OC4C[C@@H]5C[C@@H](C5(C)C)[C@]4(C)O3)[C@@H](C)O)cc2)cc1 (stereo partly shown) [Compound 263] ({X10-CO}-KTAN-X1) | 1.86 |
| CCCCc1ccc(-c2ccc(C(=O)N[C@@H](CCCCN)C(=O)N[C@H](C(=O)N[C@@H](C)C(=O)N[C@@H](CC(N)=O)C(=O)N[C@@H](C)B3O[C@@H]4C[C@@H]5C[C@@H](C5(C)C)[C@]4(C)O3)[C@@H](C)O)cc2)cc1 [Compound 129] ({Biphenylcarbonyl(4'-Bu)}-KTAN-{boroAla((+)-pinanediol)}) | 2.15 |
